Source of measurements: BigSolDB 2.1

# settings: in ethanol, 288.65 K
measuredAttribute: solubility (mole fraction)
API note: the answer field is a bare number with no unit suffix.

Ask: May I ask what solubility (mole fraction) has been recorded for O=[PH](O)c1ccccc1 ?
Result: 0.112

====

We begin with a simple list: items and their reported solubility (mole fraction).
# settings: in acetone, 298.15 K
API note: the answer field is a bare number with no unit suffix.

INSERT INTO assay_data (chemsmiles, val) VALUES
  ('CP(=O)(O)c1ccccc1', 0.0609);

Field: next molecule
Ask: May I ask what solubility (mole fraction) has been recorded for O=[PH](O)c1ccccc1 ?
Result: 0.0448

====

# settings: in acetonitrile, 328.15 K
measuredAttribute: solubility (mole fraction)
API note: the answer field is a bare number with no unit suffix.

Ask: May I ask what solubility (mole fraction) has been recorded for c1ccc(OP2(Oc3ccccc3)=NP(Oc3ccccc3)(Oc3ccccc3)=NP(Oc3ccccc3)(Oc3ccccc3)=N2)cc1 ?
Result: 0.0332

====

# settings: in water, 333.65 K
measuredAttribute: solubility (mole fraction)

Ask: May I ask what solubility (mole fraction) has been recorded for CP(=O)(O)c1ccccc1 ?
Result: 0.0679

====

# settings: in water, 300.25 K
measuredAttribute: solubility (mole fraction)

Ask: May I ask what solubility (mole fraction) has been recorded for O=[PH](O)c1ccccc1 ?
Result: 0.0111

====

# settings: in chloroform, 328.15 K
measuredAttribute: solubility (mole fraction)
API note: the answer field is a bare number with no unit suffix.

Ask: May I ask what solubility (mole fraction) has been recorded for CP(=O)(O)c1ccccc1 ?
Result: 0.34

====

# settings: in chloroform, 298.25 K
measuredAttribute: solubility (mole fraction)

Ask: May I ask what solubility (mole fraction) has been recorded for CP(=O)(O)c1ccccc1 ?
Result: 0.132

====

# settings: in acetone, 304.35 K
measuredAttribute: solubility (mole fraction)

Ask: May I ask what solubility (mole fraction) has been recorded for c1ccc(OP2(Oc3ccccc3)=NP(Oc3ccccc3)(Oc3ccccc3)=NP(Oc3ccccc3)(Oc3ccccc3)=N2)cc1 ?
Result: 0.0496

====

# settings: in water, 310.45 K
measuredAttribute: solubility (mole fraction)
API note: the answer field is a bare number with no unit suffix.

Ask: May I ask what solubility (mole fraction) has been recorded for CP(=O)(O)c1ccccc1 ?
Result: 0.027

====

# settings: in ethyl acetate, 318.15 K
measuredAttribute: solubility (mole fraction)
API note: the answer field is a bare number with no unit suffix.

Ask: May I ask what solubility (mole fraction) has been recorded for CP(=O)(O)c1ccccc1 ?
Result: 0.182

====

# settings: in ethyl acetate, 318.25 K
measuredAttribute: solubility (mole fraction)

Ask: May I ask what solubility (mole fraction) has been recorded for O=[PH](O)c1ccccc1 ?
Result: 0.0661

====

# settings: in ethyl acetate, 313.35 K
measuredAttribute: solubility (mole fraction)
API note: the answer field is a bare number with no unit suffix.

Ask: May I ask what solubility (mole fraction) has been recorded for CP(=O)(O)c1ccccc1 ?
Result: 0.152

====

# settings: in acetone, 318.35 K
measuredAttribute: solubility (mole fraction)
API note: the answer field is a bare number with no unit suffix.

Ask: May I ask what solubility (mole fraction) has been recorded for c1ccc(OP2(Oc3ccccc3)=NP(Oc3ccccc3)(Oc3ccccc3)=NP(Oc3ccccc3)(Oc3ccccc3)=N2)cc1 ?
Result: 0.093
